Every entry's value here was drawn from patent US20230416329A1.

target: bovine trypsin (bovine, UniProt P00760 24-246); assay: trypsin inhibition, BApNA substrate
Sequence (P00760 24-246): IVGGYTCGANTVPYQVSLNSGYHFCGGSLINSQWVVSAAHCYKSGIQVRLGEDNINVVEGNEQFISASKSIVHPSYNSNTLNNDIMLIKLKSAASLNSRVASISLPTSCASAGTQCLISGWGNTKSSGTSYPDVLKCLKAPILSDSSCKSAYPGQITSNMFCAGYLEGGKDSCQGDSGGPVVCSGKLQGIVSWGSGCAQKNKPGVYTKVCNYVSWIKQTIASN
Bridge positions count the residues as written; N and C are the ends. Ends that are not written are not given here.
OBSERVATION_TYPE: pKi
Answer as the number alone; pKi is minus log10 of concentration in mol/L.

query: For CGRSTKSIPPICF (disulfide 1-12 (inferred)) [BT47] , what is its reported pKi?
result: 8.00

query: Also, CGSATKSIPPICFPD (disulfide 1-12 (inferred)) [BT6] please.
result: 7.22

query: Also, CGRATRSIPPACF (disulfide 1-12 (inferred)) [BT15] please.
result: 6.02
